# System: M14 melanoma
# protocolDetails: NCI tumour cell line growth inhibition, 48 h
Collected TGI values appear next to each entry.

compound | TGI
O=C1CC(c2c[nH]c3ccc(F)cc23)C(=O)N1 (stereo unspecified) | > 100 µM
CCOc1ccccc1N=Nc1ccc2oc(=O)c(C(C)=O)cc2c1 | > 100 µM
COc1ccc(Nc2nc3ccccc3n3cccc23)cc1OC | 30.7 µM

For FC(F)(F)c1ccccc1C1SCC2=Nc3ccccc3CN21 (stereo unspecified) on M14 melanoma, measured TGI was 24.6 µM

For `CCc1n[nH]c(=O)n1CCCCCCCCn1c(CC)n[nH]c1=O` on M14 melanoma, measured TGI was > 100 µM

For `C=C1C[C@H]2C=Nc3cc(OCCCOc4cc5c(cc4OC)C(=O)N4CC(=C)C[C@H]4C=N5)c(OC)cc3C(=O)N2C1` on M14 melanoma, measured TGI was 0.0846 µM

For `c1ccc(-c2oc(-c3ccccc3)c(CN3CCCCC3)c2CN2CCCCC2)cc1` on M14 melanoma, measured TGI was 4.25 µM

For C=CCCC1(O)C(O)C(CO)O[C@H](O[C@@]2(CO)OC(CO)C(O)C2O)C1O (stereo partly specified) on M14 melanoma, measured TGI was > 100 µM

For COc1ccc(C2c3cc4c(cc3OC(NNc3ccccc3)C2C)OCO4)cc1 (stereo unspecified) on M14 melanoma, measured TGI was > 100 µM

For `Nc1ccc2n[se]nc2c1` on M14 melanoma, measured TGI was > 100 µM

For `O=C1NC(=S)S/C1=C\c1cn(-c2ccccc2)nc1-c1ccccc1` on M14 melanoma, measured TGI was 80.2 µM

For `CN(C)CCNC(=O)c1cccc2c1nc(-c1ccc(F)cc1)c1ccccc12` on M14 melanoma, measured TGI was 18.7 µM

For `COc1cc(-c2cc(/C=C/C(=O)c3ccc(F)c(F)c3)[nH]n2)cc(OC)c1OC` on M14 melanoma, measured TGI was 11.9 µM

For `C/C(=N\O)c1ccc2ccc3ccccc3c2c1` on M14 melanoma, measured TGI was > 100 µM

For `CSc1ncnc2c1cnn2Cc1cn(COCCO)nn1` on M14 melanoma, measured TGI was > 100 µM

For `O=C(O/N=C1\CCCC\C1=C/c1ccccc1)c1ccc([N+](=O)[O-])cc1` on M14 melanoma, measured TGI was > 100 µM

For `COc1ccc2nc3cc(Cl)ccc3c(NCCCNCCO)c2c1` on M14 melanoma, measured TGI was 2.16 µM

For `COc1ccc(-c2cc(=O)c3c(O)c(OC)c(OC)c(OC)c3o2)cc1OC` on M14 melanoma, measured TGI was > 100 µM

For `Cc1nc(N)nc(N)c1CCCCc1ccc(N)cc1` on M14 melanoma, measured TGI was 18.4 µM

For `COc1ccc2[nH]c3c(c2c1)[C@H](c1ccccc1)C[C@@H]1C(=O)N(c2ccccc2)C(=O)[C@H]31` on M14 melanoma, measured TGI was > 100 µM

For `C=C1C(=O)O[C@H]2[C@H]1CC/C(COC(=O)c1cc(OC)c(OC)c(OC)c1)=C\CC[C@@]1(C)O[C@@H]21` on M14 melanoma, measured TGI was 3.05 µM

For CSc1ncnc2c1cnn2Cc1cnnn1COCC(O)CO (stereo unspecified) on M14 melanoma, measured TGI was > 100 µM

====

# System: SF-295 CNS
# protocolDetails: NCI tumour cell line growth inhibition, 48 h
Where a SMILES comes first, the peptide text is derived from it. The star is where a group is joined. Trt = c1ccc(C(c2ccccc2)(c2ccccc2)*)cc1; Cbz = O=C(OCc1ccccc1)*
Collected TGI values appear next to each entry.

A selection of reference data follows.
compound | systemTested | TGI
O=c1[nH]nc(Cc2ccccc2)n1/N=C/c1cccs1 | SF-295 CNS | > 100 µM
CN(C)c1ccc(/C=C\c2ccnc3ccccc23)cc1 | SF-295 CNS | > 44.7 µM
CCOC(=O)C(C)(NC(=O)c1ccc(NCc2ccc3nc(NC(=O)c4ccccc4)nc(NC(=O)c4ccccc4)c3c2)cc1)C(=O)OCC | SF-295 CNS | 19.9 µM
C/C(=N\O)c1ccc2ccc3ccccc3c2c1 | SF-295 CNS | 86.9 µM
CCOC1=C2N=C(C(CC)c3ccccc3F)N=C2C(=O)c2ccccc21 (stereo not given) | SF-295 CNS | > 100 µM

// field: TGI; key: Nc1nncc2c1c(Br)cn2C1OC(CO)C(O)C1O (stereo not given) ; value = > 100 µM

// field: TGI; key: CC1(C)C2CCC3CC(CCC#N)CCC3C21C#N (stereo not given) ; value = > 100 µM

// field: TGI; key: COC(=O)C(CO)NC(=O)C(CSC(c1ccccc1)(c1ccccc1)c1ccccc1)NC(=O)OCc1ccccc1 (stereo not given) (Cbz-Cys(Trt)-Ser-OMe; configuration not given here) ; value = 34.5 µM

// field: TGI; key: `COc1ccc2nc3cc(Cl)ccc3c(NCCCNCCO)c2c1` ; value = 2.32 µM

====

Collected TGI values appear next to each entry.
# System: OVCAR-3 ovarian
# protocolDetails: NCI tumour cell line growth inhibition, 48 h
Where a SMILES comes first, the peptide text is derived from it. The star is where a group is joined. Trt = c1ccc(C(c2ccccc2)(c2ccccc2)*)cc1; Cbz = O=C(OCc1ccccc1)*
Could you give me the number in µM? Just the number is fine.

compound | systemTested | value
Cc1nc(N)nc(N)c1CCCCc1ccc(N)cc1 | OVCAR-3 ovarian | 20.9
COc1ccc(N2C(=O)c3c(c4[nH]c5ccccc5c4c4ccc(C(C)(C)C)cc34)C2=O)cc1 | OVCAR-3 ovarian | 53.6
COC(=O)C(CO)NC(=O)C(CSC(c1ccccc1)(c1ccccc1)c1ccccc1)NC(=O)OCc1ccccc1 (stereo not drawn) (Cbz-Cys(Trt)-Ser-OMe; configuration not given here) | OVCAR-3 ovarian | 28.6

// field: TGI; key: `O=C1CCN2c3ccccc3[C@H]3Cc4cccc(c4[C@@H]2C3)CCO1` ; value = 86

// field: TGI; key: `COc1cc2cc(Oc3ccc(NC(=O)Nc4cc(C(F)(F)F)cc(C(F)(F)F)c4)cc3)c(C)nc2cc1OCCN1CCOCC1` ; value = 5.28

// field: TGI; key: CCCCN(CCCC)C(=O)[C@H](CC)[C@@H]1CC[C@@H](C)[C@@H]([C@H](C)[C@@H](O)[C@@H](C)C(=O)[C@H](CC)C2O[C@]3(C=C[C@@H](O)[C@]4(CC[C@@](C)([C@H]5CC[C@](O)(CC)[C@H](C)O5)O4)O3)[C@H](C)C[C@@H]2C)O1 (stereo partly drawn) ; value = 4.84

====

# Tested on: HS 578T breast
# protocolDetails: NCI tumour cell line growth inhibition, 48 h
Collected GI50 values appear next to each entry.

A selection of reference data follows.
compound | quantity | value
C[C@@]1([C@H](OC(=O)c2ccccc2)C(N)=O)CO1 | GI50 | 34.4 µM
CCOC(=O)c1c(-c2ccccc2)[n+](=O)c2cc(Cl)c(Cl)cc2n1[O-] | GI50 | 20.1 µM
O=C(Nc1ccc(Oc2ccc3nc(NC(=O)c4ccco4)[nH]c3c2)cc1)Nc1cc(C(F)(F)F)ccc1F | GI50 | 0.446 µM
COc1cc2oc(-c3cccc(C(=O)Nc4ccc(Cl)cc4)c3)cc(=O)c2c(OC)c1OC | GI50 | 2.95 µM

// field: GI50; key: CSC1=NC(=Nc2c(C)cccc2C)C2(CCC(C(C)(C)C)CC2)N1c1ccc(Cl)cc1 (stereo not drawn) ; value = 95.8 µM

// field: GI50; key: `CCOC(=O)[C@@H](C)C[C@H](Cc1ccccc1)NC(=O)c1csc([C@@H](C[C@H](C(C)C)N(C)C(=O)[C@@H](NC(=O)[C@H]2CCCCN2C)C(C)(C)CC)OC(C)=O)n1` ; value = < 0.00167 µM

// field: GI50; key: `O=C1NC(=NCCc2ccc(F)cc2)S/C1=C\c1ccc2ncccc2c1` ; value = > 25 µM

// field: GI50; key: `COc1cc(CNCCCCCCN2C(=O)c3cccc4cccc(c34)C2=O)ccc1O` ; value = 10 µM

// field: GI50; key: `COc1ccc2nc3cc(Cl)ccc3c(NCCCNCCO)c2c1` ; value = 1.48 µM

// field: GI50; key: `COc1cc(/C=C2\C(=O)N(Cc3ccc(Cl)cc3)c3ccccc32)cc(OC)c1OC` ; value = 1.65 µM

// field: GI50; key: `COc1cccc(/C=C/C(=O)c2ccc3cc(OC)ccc3c2)c1` ; value = 14.3 µM

// field: GI50; key: `CC(=O)Nc1ccc(C(=O)CCl)cc1` ; value = 17.7 µM

// field: GI50; key: `NC(N)=N/N=C/c1c(-c2ccsc2)nc2n1CCS2` ; value = 34.9 µM

// field: GI50; key: `COc1cc2cc(Oc3ccc(NC(=O)Nc4cc(C(F)(F)F)cc(C(F)(F)F)c4)cc3)c(C)nc2cc1OCCN1CCOCC1` ; value = 1.56 µM

// field: GI50; key: COc1ccc2c(c1)OC(N)=C(C#N)C2c1cc(OC)c(OC)c(OC)c1 (stereo not drawn) ; value = 0.0408 µM

// field: GI50; key: `NS(=O)(=O)c1ccc(Nc2cc(-c3ccc(O)c(F)c3)[nH]n2)cc1` ; value = 7.28 µM

// field: GI50; key: `c1ccc(-c2oc(-c3ccccc3)c(CN3CCCCC3)c2CN2CCCCC2)cc1` ; value = 3.14 µM

// field: GI50; key: `CO[C@H]1C[C@@H]2CC[C@@H](C)[C@@](O)(O2)C(=O)C(=O)N2CCCC[C@H]2C(=O)O[C@H]([C@H](C)C[C@@H]2CC[C@@H](OC(=O)C(C)(CO)CO)[C@H](OC)C2)CC(=O)[C@H](C)/C=C(\C)[C@@H](O)[C@@H](OC)C(=O)[C@H](C)C[C@H](C)\C=C/C=C/C=C/1C` ; value = 0.00133 µM
